The molecules listed here are annotated with their CC50 at 5 days.
Test: Cytotoxicity assay in MT-4 cells
Format: cell-based, human
Conditions: human, uninfected MT-4 cells, 5 days incubation; read-out: CC50

Molecule | Reading qualifier | CC50 at 5 days, µM
Cc1noc2c1C[C@H]1CN(C2)C(=O)c2c(O)c(=O)c(C(=O)NCc3c(F)cc(F)cc3F)cn21 (single isomer, unassigned) | > | 50
O=C(NCc1c(F)cc(F)cc1F)c1cn2c(c(O)c1=O)C(=O)N1CCN(C(F)(F)F)CC2C1 (stereo not shown) | > | 50
C[C@@H]1N2C[C@H](CCC1(F)F)n1cc(C(=O)NCc3c(F)cc(F)cc3F)c(=O)c(O)c1C2=O | = | 15.2
O=C(NCc1c(F)cc(F)cc1F)c1cn2c(c(O)c1=O)C(=O)N1C[C@H]2CCc2cccc(F)c21 | = | 12.5
CC[C@@H]1CCC[C@H]2CN1C(=O)c1c(O)c(=O)c(C(=O)NCc3c(F)cc(F)cc3F)cn12 | = | 12.2
C[C@@H]1[C@H]2CCCCN1C(=O)c1c(O)c(=O)c(C(=O)NCc3ccc(F)cc3F)cn12 | = | 8.81
O=C(NCc1ccc(F)cc1F)c1cn2c(c(O)c1=O)C(=O)N1CCCC2CC1 (stereo not shown) | = | 12
C[C@@H]1C[C@H]2CN(C(=O)c3c(O)c(=O)c(C(=O)NCc4c(F)cc(F)cc4F)cn32)[C@@H](C)C1 | = | 8.42
O=C(NCc1ccc(F)cc1)c1cn2c(c(O)c1=O)C(=O)N1CCCC[C@H]2C1 | = | 15.6
CC[C@]1(O)CCCN2C[C@H]1n1cc(C(=O)NCc3c(F)cc(F)cc3F)c(=O)c(O)c1C2=O | > | 40.4
C[C@]12CCCCN(C1)C(=O)c1c(O)c(=O)c(C(=O)NCc3c(F)cc(F)cc3F)cn12 | = | 15
O=C(NCc1c(F)cc(F)cc1F)c1cn2c(c(O)c1=O)C(=O)N1CCc3ccc(Br)cc3[C@H]2C1 (single isomer, unassigned) | = | 4.74
O=C(NCc1ccc(F)cc1F)c1cn2c(c(O)c1=O)C(=O)N1CC3CC3CC2C1 (single isomer, unassigned) | = | 7.49
O=C(NCc1c(F)cc(F)cc1F)c1cn2c(c(O)c1=O)C(=O)N1CCc3ccc(Cl)cc3[C@H]2C1 | = | 5.02
C[C@@H]1CC[C@H](C)[C@@H]2CN1C(=O)c1c(O)c(=O)c(C(=O)NCc3c(F)cc(F)cc3F)cn12 | = | 14.7
C[C@@]1(O)CCCN2C[C@@H]1n1cc(C(=O)NCc3ccc(F)cc3F)c(=O)c(O)c1C2=O | = | 19.9
C[C@@]12CN(CCc3cc(F)c(F)cc31)C(=O)c1c(O)c(=O)c(C(=O)NCc3c(F)cc(F)cc3F)cn12 (single isomer, unassigned) | = | 8.99
C[C@@]1(F)CCCN2C[C@@H]1n1cc(C(=O)NCc3ccc(F)cc3F)c(=O)c(O)c1C2=O | = | 14.8
O=C(NCc1ccc(F)cc1F)c1cn2c(c(O)c1=O)C(=O)N1C[C@@H]2CCC[C@@H]1C(F)F | = | 12.3

====

Test system: pLai RLuc reporter virus
Assay: microbe, parasite or virus in culture
Type: cell-based, HIV
Settings: Human immunodeficiency virus 1, 72 h, read-out: Antiviral Serum Shift RLuc CCM, CCM (RPMI media, 10% FBS, 1% P/S), 72-h incubation
pEC50: −log10 of the molar value.

Compound | pEC50
O=C(NCc1ccc(F)cc1F)c1cn2c(c(O)c1=O)C(=O)N1C[C@H]2COc2cc(F)c(F)cc21 [Example 92-2] | 9.51
O=C(NCc1ccc(F)c(Cl)c1F)c1cn2c(c(O)c1=O)C(=O)N1CC2CCc2cc(F)ccc21 (stereo not drawn) [Example 68] | 9.56
O=C(NCc1ccc(F)c(Cl)c1F)c1cn2c(c(O)c1=O)C(=O)N1CC2CCc2cc(F)c(F)cc21 (stereo not drawn) [Example 69] | 9.70
O=C(NCc1ccc(F)cc1F)c1cn2c(c(O)c1=O)C(=O)N1CC[C@H](F)C[C@@H]2C1 [Example 56-3] | 9.51
O=C(NCc1ccc(F)cc1F)c1cn2c(c(O)c1=O)C(=O)N1CCc3ccccc3[C@@H]2C1 [Example 64-1] | 9.50
C[C@@]12CN(CCc3cc(F)c(F)cc31)C(=O)c1c(O)c(=O)c(C(=O)NCc3c(F)cc(F)cc3F)cn12 (single isomer, unassigned) [Example 120-1] | 9.43
